biological target: hMC3-R; construct: expressed in transfected cells; host or cells: HEK-293; assay: Competitive inhibition assay using [I125]-NDP-α-MSH, hMC3-R membranes; format: binding, human; conditions: read-out: Ki (nM) (NDP-α-MSH) MC3-R
Assay metric: Ki (nM)
# unit: nM | format: bare number

Sample answers from the record:
| Compound | Target desc | Observed |
| --- | --- | --- |
| N=C(N)NCCC[C@H]1CN(CCc2ccc3ccccc3c2)CCN1C(=O)[C@H](N)Cc1ccc(Cl)cc1Cl [Example 18] | hMC3-R | 97 |
| N=C(N)NCCC[C@H]1CN(C(=O)Cc2ccc3ccccc3c2)[C@H](Cc2ccccc2)CN1C[C@H](N)Cc1ccc2ccccc2c1 [Example 30] | hMC3-R | 387 |
| N=C(N)NCCC[C@H]1C(=O)N(CCc2c[nH]c3ccccc23)CCN1C(=O)[C@H](N)Cc1ccc(Cl)cc1Cl [Example 2] | hMC3-R | 533 |

Query string: GET /values?readout=Ki&item= C[C@@H]1CN(C(=O)[C@H](N)Cc2ccc3ccccc3c2)[C@@H](CCCNC(=N)N)CN1CCc1c[nH]c2ccccc12 [Example 8]
Result string: 2120
